- Tested on: SK-OV-3 ovarian
- ASSAY_EXPLANATION: NCI-60 one-dose screen, 48 h (100 = growth as untreated, 0 = no growth, -100 = all killed)
- COND: 10 µM unless noted
The panel holds about 83,000 compounds, 20% with a hit somewhere; the sample as a whole holds those more often.
ENDPOINT_LABEL: growth (%)
Supply the numeric figure in %, leaving out any unit text.

Study these solved cases before continuing.
>  <COMPOUND>
O=C(COc1ccc(/C=C2\C(=O)Nc3cc(Cl)ccc32)cc1)Nc1ccc(Cl)cc1

>  <UNITS_LABEL>
%

>  <growth>
87.1

$$$$
>  <COMPOUND>
CC1CC(=O)C2=C(C1)Nc1ccc(Br)cc1CC2c1c[nH]c2ccc(Br)cc12 (stereo unspecified)

>  <UNITS_LABEL>
%

>  <growth>
77.3

$$$$
>  <COMPOUND>
NS(=O)(=O)c1nnc(/N=C/c2c(O)[nH]c3ccccc23)s1

>  <UNITS_LABEL>
%

>  <growth>
99.5

$$$$

GET /value?item= "COc1ccc2sc(NC(=O)CCCCCCNC(=O)C(O)(O)C(F)(F)F)nc2c1" &field=growth returns -26.6

Recorded growth (compound "COc1ccccc1/C=C/C(=O)c1nnn(-c2ccc(F)cc2)c1C" ): 95.8

Value of measured growth for the entry "O=C1/C(=C/c2cc(F)cc(F)c2)Cc2cc3c(cc21)OCO3" : 35.6

Reported growth of "N#Cc1cnc2ccc(-c3cnc4n[nH]nc4c3)cc2c1N1CCc2cc(F)c(Cl)cc21" : -0.177
